study-system: UniProtKB P48736
Sequence (P48736 whole entry, species assumed): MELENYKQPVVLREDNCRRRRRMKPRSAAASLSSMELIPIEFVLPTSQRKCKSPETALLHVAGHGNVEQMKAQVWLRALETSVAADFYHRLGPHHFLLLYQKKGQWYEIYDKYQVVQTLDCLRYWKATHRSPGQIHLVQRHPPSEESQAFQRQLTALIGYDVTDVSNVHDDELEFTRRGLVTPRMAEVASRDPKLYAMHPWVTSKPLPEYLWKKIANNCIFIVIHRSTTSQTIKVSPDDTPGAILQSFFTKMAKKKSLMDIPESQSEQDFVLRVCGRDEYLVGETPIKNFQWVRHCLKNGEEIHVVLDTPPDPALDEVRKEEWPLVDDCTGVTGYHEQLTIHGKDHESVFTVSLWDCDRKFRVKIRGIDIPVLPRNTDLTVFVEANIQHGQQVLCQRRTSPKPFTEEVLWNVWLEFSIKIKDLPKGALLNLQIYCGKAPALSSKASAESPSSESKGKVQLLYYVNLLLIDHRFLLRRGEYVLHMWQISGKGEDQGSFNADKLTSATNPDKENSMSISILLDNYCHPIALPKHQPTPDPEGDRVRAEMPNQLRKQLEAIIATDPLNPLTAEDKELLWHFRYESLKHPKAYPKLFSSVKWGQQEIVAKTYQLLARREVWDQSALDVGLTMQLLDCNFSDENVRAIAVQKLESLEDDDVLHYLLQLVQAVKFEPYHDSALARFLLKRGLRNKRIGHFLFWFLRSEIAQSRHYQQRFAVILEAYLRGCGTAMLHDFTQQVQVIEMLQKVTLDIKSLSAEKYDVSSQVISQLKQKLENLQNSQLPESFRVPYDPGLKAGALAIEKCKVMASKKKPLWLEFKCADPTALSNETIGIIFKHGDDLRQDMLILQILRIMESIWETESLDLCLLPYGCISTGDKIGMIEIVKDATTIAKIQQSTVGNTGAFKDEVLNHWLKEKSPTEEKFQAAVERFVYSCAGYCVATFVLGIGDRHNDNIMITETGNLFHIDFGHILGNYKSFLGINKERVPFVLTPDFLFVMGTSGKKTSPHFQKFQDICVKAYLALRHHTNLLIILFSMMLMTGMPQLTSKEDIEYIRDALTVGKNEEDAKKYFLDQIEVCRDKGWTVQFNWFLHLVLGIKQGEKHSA
procedure-summary: PI3K-gamma fluorescence polarization assay
Type: biochemical
experimental-conditions: PI3Kγ Avg. IC50
Classify: class 1 when IC50 is strictly less than 700 nM; class 0 when IC50 is not.

Worked examples follow.
smiles-representation: Cn1cc(/C=C2\Oc3cc(O)cc(O)c3C2=O)c2c(-c3ccc(O)cc3)cccc21
assigned-category: class 0
//
smiles-representation: Cn1c(-c2ccccc2)c(/C=C2\Oc3cc(O)cc(O)c3C2=O)c2c(N)cccc21
assigned-category: class 0
//
smiles-representation: CNC(=O)Nc1ccc2c(c1)C(=O)/C(=C/c1c(C3CCCC3)n(CCN3CCN(C)CC3)c3ccc(OC)cc13)O2
assigned-category: class 1
//
smiles-representation: COc1ccc2c(c1)c(/C=C1\Oc3cc(O)cc(O)c3C1=O)c(C)n2CCn1ccnc1
assigned-category: class 1
//
smiles-representation: O=C1C(=Cc2c[nH]c3c(O)cccc23)Oc2cc(O)cc(O)c21
assigned-category: class 0

Confirm or reject: IC50 of `COc1cc(-c2cncnc2)c2[nH]cc(/C=C3\Oc4cc(O)ccc4C3=O)c2c1` lies strictly below 700 nM
class 1

Same question for `CNC(=O)c1ccc(-c2cccc3c2c(/C=C2\Oc4cc(O)cc(O)c4C2=O)cn3C)cc1` please.
class 0

Same question for `N#CCCCn1c(-c2ccccc2)c(C=C2Oc3cc(O)cc(O)c3C2=O)c2ccccc21` please.
class 0

`COc1ccc2c(c1)c(/C=C1\Oc3ccc(NC(=O)Nc4ccc(C(=O)N5CCOCC5)cc4)cc3C1=O)c(C)n2CCN1CCN(C)CC1` , same question.
class 1

Further, for `CNC(=O)Nc1ccc2c(c1)C(=O)/C(=C/c1cn(C)c3c(CCCN4CCN(C)CC4)cc(OC)cc13)O2` ?
class 0

Check `CCn1c(C)c(/C=C2\Oc3ccc(NC(=O)Nc4ccc(CCCCN(C)C)cc4)cc3C2=O)c2cc(OC)ccc21` too.
class 1

Field entry: `CCCc1noc(-c2[nH]c3ccc(OC)cc3c2/C=C2\Oc3ccc(NC(=O)NC)cc3C2=O)n1`
class 0

Please do the same for `COc1ccc2c(c1)c(/C=C1\Oc3cc(O)c(Cl)cc3C1=O)c(C)n2CCN1CCN(C)CC1` as well.
class 0

----------
Please provide measured IC50 for the entries that follow.
study-system: PI3K-alpha (Homo sapiens, UniProt P42336)
Sequence (P42336 whole entry, species assumed, one chain of several): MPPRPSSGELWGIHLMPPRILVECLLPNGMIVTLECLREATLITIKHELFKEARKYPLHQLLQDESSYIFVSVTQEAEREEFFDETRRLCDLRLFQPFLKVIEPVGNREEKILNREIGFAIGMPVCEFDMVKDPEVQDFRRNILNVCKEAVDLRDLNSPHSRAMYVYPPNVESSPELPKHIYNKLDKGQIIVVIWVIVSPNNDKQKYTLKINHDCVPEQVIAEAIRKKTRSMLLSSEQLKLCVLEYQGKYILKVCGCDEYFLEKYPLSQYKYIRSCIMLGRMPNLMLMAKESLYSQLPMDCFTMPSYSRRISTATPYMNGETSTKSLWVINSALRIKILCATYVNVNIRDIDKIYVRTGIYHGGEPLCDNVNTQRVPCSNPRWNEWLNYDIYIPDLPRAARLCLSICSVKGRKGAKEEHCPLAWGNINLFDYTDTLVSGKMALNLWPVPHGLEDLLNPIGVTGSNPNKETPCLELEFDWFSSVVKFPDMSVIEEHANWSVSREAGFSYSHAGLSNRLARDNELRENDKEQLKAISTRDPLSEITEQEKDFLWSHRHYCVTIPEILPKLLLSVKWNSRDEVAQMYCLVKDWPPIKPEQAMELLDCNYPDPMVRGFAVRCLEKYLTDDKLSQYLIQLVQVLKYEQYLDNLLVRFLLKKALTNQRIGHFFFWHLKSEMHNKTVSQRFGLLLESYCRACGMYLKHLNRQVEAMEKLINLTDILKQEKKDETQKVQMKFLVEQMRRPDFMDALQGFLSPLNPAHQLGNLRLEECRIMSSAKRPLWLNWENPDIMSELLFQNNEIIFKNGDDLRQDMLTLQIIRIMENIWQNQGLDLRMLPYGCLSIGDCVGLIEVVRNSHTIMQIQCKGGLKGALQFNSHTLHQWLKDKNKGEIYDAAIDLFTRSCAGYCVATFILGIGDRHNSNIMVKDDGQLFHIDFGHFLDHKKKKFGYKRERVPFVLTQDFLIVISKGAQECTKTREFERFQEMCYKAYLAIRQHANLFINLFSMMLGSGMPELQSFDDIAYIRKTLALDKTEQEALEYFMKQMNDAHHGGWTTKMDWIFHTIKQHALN
procedure-summary: PI3K-alpha fluorescence polarization assay
Format: biochemical
experimental-conditions: read-out: PI3Kα Avg. IC50
Give bare numbers, in nM.

# count of solved cases: 5
smiles-representation: COc1ccc2c(c1)c(/C=C1\Oc3cc(O)ccc3C1=O)c(C)n2CCCN1CCCCC1
attribute-measured: IC50
reported: 11

smiles-representation: COc1ccc2c(c1)c(C=C1Oc3cc(O)cc(O)c3C1=O)c(C)n2CCCN1CCN(CCN2CCOCC2)CC1
attribute-measured: IC50
reported: 9.6

smiles-representation: Cc1noc(C)c1-c1c(C=C2Oc3cc(O)cc(O)c3C2=O)c2ccccc2n1C
attribute-measured: IC50
reported: 4180

smiles-representation: CNC(=O)Nc1ccc2c(c1)C(=O)/C(=C/c1c(-c3c(C)noc3C)n(CCN3CCN(C)CC3)c3ccc(OC)cc13)O2
attribute-measured: IC50
reported: 8.5

smiles-representation: COc1ccc2c(c1)c(/C=C1\Oc3cc(O)cc(O)c3C1=O)c(-c1cncnc1)n2CCN1CCN(C)CC1
attribute-measured: IC50
reported: 51.5

Below are 8 compounds. Give each one its IC50.
1. CNC(=O)Nc1ccc2c(c1)C(=O)/C(=C/c1c(-c3cnn(C)c3C)[nH]c3ccc(OC)cc13)O2
2. COc1cc(F)c2[nH]c(-c3c(C)nn(C)c3C)c(/C=C3\Oc4ccc(NC(=O)Nc5ccc(C(=O)N6CCN(CCO)CC6)cc5)cc4C3=O)c2c1
3. O=C1C(=Cc2c[nH]c3c(O)cccc23)Oc2cc(O)cc(O)c21
4. COc1cccc2c1O/C(=C\c1c(-c3ccc(Cl)cc3)[nH]c3ccccc13)C2=O
5. COc1ccc(NC(=O)Nc2ccc3c(c2)C(=O)/C(=C/c2c[nH]c4ccc(OC)cc24)O3)cc1
6. COc1ccc2[nH]cc(/C=C3\Oc4cc(C#N)ccc4C3=O)c2c1
7. CNC(=O)Nc1ccc2c(c1)C(=O)/C(=C/c1c(-c3c(C)nn(C)c3C)n(CCNCCN(C)C)c3ccc(OC)cc13)O2
8. O=C1/C(=C/c2c(-c3ccc(F)cc3)[nH]c3ccccc23)Oc2c1ccc(O)c2O

1
0.6
1030
1940
465
8500
2.05
190

Sample `O=C1C(=Cc2c[nH]c3c(OCc4ccccc4)cccc23)Oc2cc(O)cc(O)c21` — what was its IC50?
1000

----------
study-system: UniProt P42336
procedure-summary: PI3K-alpha fluorescence polarization assay
Assay type: biochemical
experimental-conditions: read-out: PI3Kα Avg. IC50
attribute-measured: pIC50
Numbers only, as −log10 of the molar value.

compound: CCn1c(C)c(/C=C2\Oc3ccc(NC(=O)Nc4ccc(N(C)CCCCN(C)C)cc4)cc3C2=O)c2cc(OC)ccc21 [Compound 675]
attribute-measured: pIC50
reported: 8.05
//
compound: Cc1[nH]c2ccc(F)cc2c1C=C1Oc2cc(O)cc(O)c2C1=O [Example 218]
attribute-measured: pIC50
reported: 6.10

Count: 2. Required value per item: pIC50.
1. COc1ccc2c(c1)c(/C=C1\Oc3cc(O)cc(O)c3C1=O)c(C1CC1)n2CCO [Example 313]
2. O=C1/C(=C/c2c(-c3ccc4ccccc4c3)[nH]c3ccccc23)Oc2cc(O)ccc21 [Example 27]

8.52
5.26

Go through the items and report each one's pIC50.
1. COc1ccc2c(c1)c(/C=C1\Oc3cc(-c4cnc(N)nc4)ccc3C1=O)cn2CCCN(C)C [Example 427]
2. O=C1C(=Cc2c(-c3ccccc3)n(Cc3ccncc3)c3ccccc23)Oc2cc(O)cc(O)c21 [Example 154]
3. Cn1cc(C=C2Oc3cc(O)cc(O)c3C2=O)c2cc(F)ccc21 [Example 227]

[5.02, 5.80, 6.12]

Batch of 2 compounds: report pIC50 for each.
1. Cc1[nH]c2c(Br)cccc2c1C=C1Oc2cc(O)cc(O)c2C1=O [Example 217]
2. Cn1cc(/C=C2\Oc3cc(O)cc(O)c3C2=O)c2c(-c3ccc(C(=O)NCc4ccco4)cc3)cccc21 [Example 399]

[5.85, 6.09]

Go through the list and state pIC50 for each entry.
1. COc1cccc2c1c(C=C1Oc3cc(O)cc(O)c3C1=O)cn2C [Example 255]
2. CNC(=O)Nc1ccc2c(c1)C(=O)/C(=C/c1c(C#N)[nH]c3ccc(OC)cc13)O2 [Compound 604]

1: 5.61; 2: 7.98

----------
study-system: PI3K-delta (Homo sapiens, UniProt O00329)
Sequence (O00329 whole entry, species assumed): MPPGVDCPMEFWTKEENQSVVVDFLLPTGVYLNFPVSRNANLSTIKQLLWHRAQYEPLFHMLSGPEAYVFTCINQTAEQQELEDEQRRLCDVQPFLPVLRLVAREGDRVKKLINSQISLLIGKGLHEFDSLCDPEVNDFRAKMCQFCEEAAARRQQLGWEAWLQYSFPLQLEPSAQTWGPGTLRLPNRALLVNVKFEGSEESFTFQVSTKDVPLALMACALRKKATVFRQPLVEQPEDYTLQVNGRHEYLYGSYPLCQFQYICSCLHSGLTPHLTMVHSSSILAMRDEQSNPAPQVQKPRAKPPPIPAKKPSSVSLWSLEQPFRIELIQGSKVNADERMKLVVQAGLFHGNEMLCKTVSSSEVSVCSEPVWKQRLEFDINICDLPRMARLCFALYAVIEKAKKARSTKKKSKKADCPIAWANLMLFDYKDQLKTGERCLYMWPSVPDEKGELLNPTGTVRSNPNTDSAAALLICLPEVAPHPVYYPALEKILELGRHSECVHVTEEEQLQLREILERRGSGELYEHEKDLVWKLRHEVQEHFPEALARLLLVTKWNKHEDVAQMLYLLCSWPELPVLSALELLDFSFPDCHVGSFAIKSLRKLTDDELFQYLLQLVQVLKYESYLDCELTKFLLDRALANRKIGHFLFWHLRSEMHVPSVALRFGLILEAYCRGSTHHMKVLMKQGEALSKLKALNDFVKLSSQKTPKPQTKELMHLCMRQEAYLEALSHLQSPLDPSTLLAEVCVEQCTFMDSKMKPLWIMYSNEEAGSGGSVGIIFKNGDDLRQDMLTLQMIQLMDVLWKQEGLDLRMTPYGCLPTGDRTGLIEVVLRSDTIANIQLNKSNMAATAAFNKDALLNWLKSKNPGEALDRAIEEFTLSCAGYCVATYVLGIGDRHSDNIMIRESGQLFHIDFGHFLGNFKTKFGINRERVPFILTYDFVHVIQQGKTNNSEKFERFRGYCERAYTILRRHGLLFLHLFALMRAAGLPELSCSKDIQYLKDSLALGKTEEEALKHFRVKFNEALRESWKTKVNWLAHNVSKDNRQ
Sequence (P27986 whole entry partner, species assumed): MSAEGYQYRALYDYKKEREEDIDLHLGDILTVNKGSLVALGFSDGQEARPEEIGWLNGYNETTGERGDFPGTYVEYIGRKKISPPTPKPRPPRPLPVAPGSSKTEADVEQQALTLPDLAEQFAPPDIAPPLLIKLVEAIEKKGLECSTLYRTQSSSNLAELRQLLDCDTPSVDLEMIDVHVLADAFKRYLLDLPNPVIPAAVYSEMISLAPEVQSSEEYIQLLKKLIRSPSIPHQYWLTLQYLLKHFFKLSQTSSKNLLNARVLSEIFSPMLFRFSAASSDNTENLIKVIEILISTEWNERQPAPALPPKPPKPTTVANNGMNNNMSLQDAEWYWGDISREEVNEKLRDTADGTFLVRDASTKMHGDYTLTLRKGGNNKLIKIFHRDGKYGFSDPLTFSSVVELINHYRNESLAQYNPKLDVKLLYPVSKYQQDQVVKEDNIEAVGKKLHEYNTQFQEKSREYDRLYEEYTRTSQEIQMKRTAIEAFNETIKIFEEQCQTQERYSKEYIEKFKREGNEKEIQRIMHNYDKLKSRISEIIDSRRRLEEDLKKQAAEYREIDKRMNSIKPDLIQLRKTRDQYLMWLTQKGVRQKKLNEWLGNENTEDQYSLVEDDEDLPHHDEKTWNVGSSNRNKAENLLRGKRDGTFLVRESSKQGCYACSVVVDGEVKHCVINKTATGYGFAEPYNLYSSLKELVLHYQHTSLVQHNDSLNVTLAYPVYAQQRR
procedure-summary: PI3K-delta fluorescence polarization assay
Assay type: biochemical
experimental-conditions: read-out: PI3Kδ Avg. IC50
Could you please mark 1 for values of IC50 below 6 nM and 0 for values at or above it?

Examples from the recorded data:
compound: COc1ccc2c(c1)c(/C=C1\Oc3cc(O)cc(O)c3C1=O)c(C(=O)N(C)C)n2CCO
study-system: PI3K-delta (Homo sapiens, UniProt O00329)
assigned-category: 0
//
compound: COc1ccc2c(c1)c(/C=C1\Oc3cc(O)cc(O)c3C1=O)c(C)n2CCN1CCC(O)CC1
study-system: PI3K-delta (Homo sapiens, UniProt O00329)
assigned-category: 1
//
compound: COc1ccc2c(c1)c(C=C1Oc3cc(O)cc(O)c3C1=O)cn2CCCN1CCN(CCO)CC1
study-system: PI3K-delta (Homo sapiens, UniProt O00329)
assigned-category: 0
//
compound: COc1ccc2c(c1)c(/C=C1\Oc3cc(O)c(Br)cc3C1=O)c(C)n2CCN1CCN(C)CC1
study-system: PI3K-delta (Homo sapiens, UniProt O00329)
assigned-category: 0
//
compound: COc1ccc2c(c1)c(/C=C1\Oc3cc(O)cc(O)c3C1=O)c(C(=O)N(C)C)n2CCN1CCN(C)CC1
study-system: PI3K-delta (Homo sapiens, UniProt O00329)
assigned-category: 1
//
compound: CNC(=O)Nc1ccc2c(c1)C(=O)/C(=C/c1c(-c3c(C)nn(C)c3C)[nH]c3ccc(OC)cc13)O2
study-system: PI3K-delta (Homo sapiens, UniProt O00329)
assigned-category: 1
//
compound: COc1ccc2c(c1)c(C=C1Oc3cc(O)cc(O)c3C1=O)c(C)n2CCCN1CCN(C)CC1
study-system: PI3K-delta (Homo sapiens, UniProt O00329)
assigned-category: 1
//
compound: COc1ccc2c(c1)c(/C=C1\Oc3cc(O)cc(O)c3C1=O)c(C(F)(F)F)n2CCO
study-system: PI3K-delta (Homo sapiens, UniProt O00329)
assigned-category: 0

Answer whether the compound `O=C1C(=Cc2c(-c3ccccc3)[nH]c3ccccc23)Oc2cc(O)cc(O)c21` has IC50 strictly less than 6 nM
0

Request: `COc1ccc2[nH]c(C)c(C=C3Oc4cccc(O)c4C3=O)c2c1`
0

# iterate: `COc1ccc2c(c1)c(/C=C1\Oc3ccc(NC(=O)Nc4ccc(C(=O)N5CCN(C)CC5)cc4)cc3C1=O)c(C)n2CCN1CCN(C)CC1`
1

Follow-up entry: `COc1ccc2c(c1)c(C=C1Oc3cc(O)cc(O)c3C1=O)cn2CCCN(C)C`
0

And for `Cc1c(C=C2Oc3cc(O)cc(O)c3C2=O)c2ccccc2n1CCCCCl` ?
0

Further, for `COc1ccc2c(c1)c(/C=C1\Oc3cc(O)cc(O)c3C1=O)cn2CCN1CCN(C)CC1` ?
1

Also check COc1ccc2c(c1)c(C=C1Oc3cc(O)cc(O)c3C1=O)c(C)n2CCCN1CCC(N(C)C)C1 (stereo not shown)
1

Continue with `COc1cc2c(C=C3Oc4cc(O)cc(O)c4C3=O)c(C)n(C)c2cc1C`
0

`O=C1/C(=C/c2c[nH]c3ccc(Br)cc23)Oc2cc(O)cc(O)c21` ?
0

Same lookup for `COc1ccc2c(c1)c(/C=C1\Oc3cc(O)ccc3C1=O)c(C)n2CCCN1CCCCC1` , please.
1

# iterate: COc1ccc2c(c1)c(/C=C1\Oc3cc(O)cc(O)c3C1=O)c(C(=O)N(C)C)n2CCN1CCC(O)C1 (stereo not shown)
1

# repeat for `COc1ccc2c(c1)c(/C=C1\Oc3ccc(NC(=O)Nc4ccc(C(=O)N5CCN(C)CC5)cc4)cc3C1=O)c(C)n2CCO`
1

Next compound up: `COc1ccc2c(c1)c(/C=C1\Oc3cc(O)cc(O)c3C1=O)c(C)n2CCO`
1

Follow-up entry: COc1ccc2c(c1)c(/C=C1\Oc3cc(O)cc(O)c3C1=O)c(C)n2CCN1CCC(O)C1 (stereo not shown)
1

Origin of the recorded values: patent US20090311217A1
